pIC50: −log10 of the molar value.
A set of compounds tested on Tyrosine-protein kinase CSK (Homo sapiens, UniProt P41240), with measured pIC50:

# SMILES_ENTRY, QUALIFIER_SIGN, pIC50
records = [
    ("CCOc1ccc2cc(-c3nn(C(C)C)c4ncnc(N)c34)ccc2c1", "=", 5.51),
    ("COc1ccc2cc(-c3nn(C(C)C)c4ncnc(N)c34)ccc2c1", "=", 5.59),
    ("CCOc1ccc2cc(-c3nn(CC4CCN(C)CC4)c4ncnc(N)c34)ccc2c1", "<", 5.00),
    ("CCOc1ccc2cc(-c3nn(C4CCN(C)CC4)c4ncnc(N)c34)ccc2c1", "=", 5.00),
    ("CCOc1ccc2cc(-c3nn(CC4CCNCC4)c4ncnc(N)c34)ccc2c1", "=", 5.00),
    ("CCOc1ccc2cc(-c3nn(CC4CCNCC4)c4ncnc(N)c34)ccc2n1", "<", 5.00),
]
